- assay-overview: modulation of C. elegans fzo-1 (AID 1259413);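 note: fzo-1 mutant C. elegans worms in liquid wells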
- run-parameters: C. elegans fzo-1 modulator screen, mean read-out; stronger effect = higher value
Listing of recorded mean signal by entry.
recorded-endpoint: mean signal

> print(dat)
                                   molecule  measured.result
1  CC(C)(O)c1ccccc1CC[C@@H](SCC1(CC(=O)O)CC1)c1cccc(/C=C/c2ccc3ccc(Cl)cc3n2)c1              259
2                  CCCN[C@H]1CCc2nc(N)sc2C1              239
3  CC(N)C12CC3CC(CC(C3)C1)C2 (stereo unspecified)              212
4              CC(C)(C(=O)c1cccnc1)c1cccnc1              259
5    NC(N)=Nc1nc(CSCC/C(N)=N/S(N)(=O)=O)cs1              276
6  CC(Cc1ccccc1)(NC(=O)CN)c1ccccc1 (stereo unspecified)              268
